B1: HSP90AB1 (parent)
chain: EADKNDKAVKDLVVLLFETALLSS

variants of: B1; assay: protein stability index of a GFP-peptide fusion (GPS, HEK-293T) (PSI 1-6); higher = more stable; conditions: c terminus: a fixed tail appended;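 note: lentivirally expressed fusions sorted by FACS into six bins by GFP to DsRed ratio, PSI derived from sequencing read proportions per bin multiplied by bin number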
Kindly state protein stability index for each of the entries shown.
Lab note: jot down the number only; don't add units.

Q: Requested field: protein stability index. Item: A2C
Ans: 1.74

Q: Reported protein stability index for L16C : what is it?
Ans: 3.07

Q: // lookup protein stability index for D6R
Ans: 1.73

Q: Form field: reported protein stability index of L15P
Ans: 4.06

Q: Which protein stability index is listed for L22A ?
Ans: 2.85

Q: May I ask what protein stability index has been recorded for L15A ?
Ans: 2.52

Q: protein stability index for T19D ?
Ans: 2.32

Q: What does the data say about its protein stability index? Entry: E18R
Ans: 2.21

Q: Any idea what its protein stability index is? The variant is K10D
Ans: 2.42

Q: Reported protein stability index, variant L12M : ____
Ans: 2.2

Q: Would you mind telling me what protein stability index value was observed for A20I ?
Ans: 2.19

Q: What does the data say about its protein stability index? Entry: D6L
Ans: 2.27

Q: Which measured protein stability index value corresponds to A8S ?
Ans: 2.22

Q: So what does the record say about protein stability index for V13C ?
Ans: 2.03

Q: So what does the record say about protein stability index for T19I ?
Ans: 2.92

Q: // query protein stability index value for entry E18N
Ans: 1.7

Q: I am curious: what protein stability index value has been reported for D6M ?
Ans: 2.64

Q: Entry A20Y : reported protein stability index = ?
Ans: 1.44

Q: Fill in: protein stability index of N5M is ___
Ans: 2.27

Q: Dear colleague, I am looking for the recorded protein stability index of the following variant: K7M
Ans: 2.47

Q: Dear colleague, I am looking for the recorded protein stability index of the following variant: A2Y
Ans: 1.73

Q: Bench note: what protein stability index did T19G show?
Ans: 2.49

Q: So what does the record say about protein stability index for D11V ?
Ans: 3.05

Q: Find the recorded protein stability index belonging to S24P and report it.
Ans: 2.72

Q: Need protein stability index, item D3Q
Ans: 1.82

Q: State the recorded protein stability index for this entry: L21K
Ans: 2.35

Q: Consider the variant L12C and give its measured protein stability index.
Ans: 2.35

Q: What measured protein stability index goes with E1V ?
Ans: 2.54

Q: I have this variant here, V14N , and I need its recorded protein stability index.
Ans: 2.21

Q: Reported protein stability index, variant L16T : ____
Ans: 3.63

Q: Give its protein stability index value. Item: K4M
Ans: 2.13

Q: Entry L21P : reported protein stability index = ?
Ans: 2.88

Q: Which protein stability index value is on record for D3S ?
Ans: 2.65

Q: What measured protein stability index goes with V9Y ?
Ans: 2.16

Q: Fill blank: measured protein stability index of the variant V9D is ____.
Ans: 2.44

Q: Recorded protein stability index of S23G , please.
Ans: 1.95

Q: Please report the recorded protein stability index for K4P .
Ans: 1.63

Q: What measured protein stability index goes with E18M ?
Ans: 3

Q: Item S23I has what recorded protein stability index?
Ans: 3.41

Q: Fill blank: measured protein stability index of the variant S24Y is ____.
Ans: 2.04

Q: Which protein stability index value belongs to K4S ?
Ans: 1.8

Q: Please give the measured protein stability index for this variant: L15Q
Ans: 3.06

Q: Which protein stability index value is on record for V13T ?
Ans: 3.27

Q: Form field: reported protein stability index of S23Y
Ans: 1.63

Q: For K10N , what is its reported protein stability index?
Ans: 2.01

Q: Suppose we examine the variant A2D ; what protein stability index value has been reported?
Ans: 2.04
